The origin of these recorded values is patent US20190218553.

# Kd values compiled below
# System: von Willebrand factor (VWF) (Homo sapiens, UniProt P04275 P04275:764-2813)
# Protocol Summary: filter; Bmax 81%; 2 mM CaCl2, 37 C
# Applied Conditions: tags: factor VIII free, Haematologic Technologies Inc; label: 5'-32P
Field format: number, assumed nM, no unit text.

# Binder, Observed
data = [
    ("ACGAACUGCCCUCAUUAUUGACGCACAGACGU (ssRNA, 2'-F C and U; 2'-OH A and G; 3' idT) [T70]", 13),
    ("ACGAACUGCCCUCGAUCGACGCACAGACGU (ssRNA, rAfCmGmAmAmCfUrGfCfCfCfUmCmGmAmUmCmGrAfCrGfCrAmCmAmGmAmCrGfU-idT) [T59 vrt10]", 0.4),
    ("ACGAACUGCCCUCGAUCGACGCACAGACGUUUUUU (ssRNA, mAmCmGmAmAmCmUmGfCfCfCmUmCmGmAmUmCmGmAfCrGfCmAmCmAmGmAmCmGfUmUmUmUmUmU-idT) [T79 vrt2]", 24),
    ("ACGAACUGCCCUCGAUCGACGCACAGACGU (ssRNA, mAmCmGmAmAmCfUrGfCfCfCmUmCmGmAmUmCmGmAfCrGfCrAmCmAmGmAmCmGfU-idT) [T59 vrt14]", 1.7),
]

Reported Kd of ACGAACUGCCCUCUUUUUUUUGACGCACAGACGU (ssRNA, 2'-F C and U; 2'-OH A and G; 3' idT) [T95] : 12
